Molecular target: UniProt O34835
Sequence (O34835 other isoform, or with tags, fused parts or gaps): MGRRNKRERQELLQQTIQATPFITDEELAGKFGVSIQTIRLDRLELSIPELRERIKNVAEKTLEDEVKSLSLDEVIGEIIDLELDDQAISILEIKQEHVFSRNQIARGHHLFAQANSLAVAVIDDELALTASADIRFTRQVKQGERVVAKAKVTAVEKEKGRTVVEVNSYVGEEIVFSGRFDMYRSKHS
Assay: Cell-free transcription-translation (TX-TL) FapR/T7-fapO-sfGFP assay
Format: biochemical, B. subtilis
Set-up: made in house; host or cells: E. coli BL21(DE3)
Settings: each thioester at fixed concentration (150 μM), FIG. 5D
experimental_endpoint: effector of FapR as judged by cell-free fluorescence

| compound | result |
| --- | --- |
| CCCCC(C(=O)O)C(=O)SCCNC(=O)CCNC(=O)[C@H](O)C(C)(C)COP(=O)(O)OP(=O)(O)OC[C@H]1O[C@@H](n2cnc3c(N)ncnc32)[C@H](O)[C@@H]1OP(=O)(O)O (some centres unmarked) | identified as effectors |
| CCC(C(=O)O)C(=O)SCCNC(=O)CCNC(=O)[C@H](O)C(C)(C)COP(=O)(O)OP(=O)(O)OC[C@H]1O[C@@H](n2cnc3c(N)ncnc32)[C@H](O)[C@@H]1OP(=O)(O)O (some centres unmarked) | identified as effectors |
| C#CCC(C(=O)O)C(=O)SCCNC(=O)CCNC(=O)[C@H](O)C(C)(C)COP(=O)(O)OP(=O)(O)OC[C@H]1O[C@@H](n2cnc3c(N)ncnc32)[C@H](O)[C@@H]1OP(=O)(O)O (some centres unmarked) | identified as effectors |
